The following sequences are shown together with reported binding signal values.
- Tested target: GST-Rok-C97-191 (Bacillus subtilis subsp. subtilis str. …, UniProt O34857 97-191)
- Sequence: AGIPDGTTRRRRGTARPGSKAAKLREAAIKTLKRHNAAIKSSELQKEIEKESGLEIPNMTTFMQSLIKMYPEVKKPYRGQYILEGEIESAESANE
- Assay name: protein binding microarray; Rok is a gene silencer of Bacillus subtilis; high values mean tight binding
- Conditions: protein: recombinant; tags: GST (pTH5325, pDEST15-Magic modified); dsDNA, one strand shown
Over roughly 33,000 sequences, “e-score” has its median near -0.038; the highest 2% begin near 0.33. The list comes from a sample in which the highest values are over-represented; it also holds close analogues and randomly drawn sequences.

{"Sequence content": "AATAGTAA", "Tested target": "GST-Rok-C97-191 (Bacillus subtilis subsp. subtilis str. …, UniProt O34857 97-191)", "binding signal [E-score]": 0.338}
{"Sequence content": "AAGTGTCG", "Tested target": "GST-Rok-C97-191 (Bacillus subtilis subsp. subtilis str. …, UniProt O34857 97-191)", "binding signal [E-score]": 0.0859}
{"Sequence content": "CACCGGTA", "Tested target": "GST-Rok-C97-191 (Bacillus subtilis subsp. subtilis str. …, UniProt O34857 97-191)", "binding signal [E-score]": 0.0827}
{"Sequence content": "CTCTTAGA", "Tested target": "GST-Rok-C97-191 (Bacillus subtilis subsp. subtilis str. …, UniProt O34857 97-191)", "binding signal [E-score]": -0.0403}
{"Sequence content": "CAAGGATG", "Tested target": "GST-Rok-C97-191 (Bacillus subtilis subsp. subtilis str. …, UniProt O34857 97-191)", "binding signal [E-score]": -0.044}
{"Sequence content": "CGCAACCG", "Tested target": "GST-Rok-C97-191 (Bacillus subtilis subsp. subtilis str. …, UniProt O34857 97-191)", "binding signal [E-score]": 0.0123}
{"Sequence content": "GATATGTA", "Tested target": "GST-Rok-C97-191 (Bacillus subtilis subsp. subtilis str. …, UniProt O34857 97-191)", "binding signal [E-score]": 0.303}
{"Sequence content": "AATAGTAT", "Tested target": "GST-Rok-C97-191 (Bacillus subtilis subsp. subtilis str. …, UniProt O34857 97-191)", "binding signal [E-score]": 0.332}
{"Sequence content": "CATAGACA", "Tested target": "GST-Rok-C97-191 (Bacillus subtilis subsp. subtilis str. …, UniProt O34857 97-191)", "binding signal [E-score]": -0.0183}
{"Sequence content": "CATATGTA", "Tested target": "GST-Rok-C97-191 (Bacillus subtilis subsp. subtilis str. …, UniProt O34857 97-191)", "binding signal [E-score]": 0.36}
{"Sequence content": "AACAGTAA", "Tested target": "GST-Rok-C97-191 (Bacillus subtilis subsp. subtilis str. …, UniProt O34857 97-191)", "binding signal [E-score]": 0.285}
{"Sequence content": "CACAGTAG", "Tested target": "GST-Rok-C97-191 (Bacillus subtilis subsp. subtilis str. …, UniProt O34857 97-191)", "binding signal [E-score]": 0.0897}
{"Sequence content": "AATAACCG", "Tested target": "GST-Rok-C97-191 (Bacillus subtilis subsp. subtilis str. …, UniProt O34857 97-191)", "binding signal [E-score]": 0.184}
{"Sequence content": "AATAGTAC", "Tested target": "GST-Rok-C97-191 (Bacillus subtilis subsp. subtilis str. …, UniProt O34857 97-191)", "binding signal [E-score]": 0.293}
{"Sequence content": "CGTTGGAG", "Tested target": "GST-Rok-C97-191 (Bacillus subtilis subsp. subtilis str. …, UniProt O34857 97-191)", "binding signal [E-score]": -0.19}
{"Sequence content": "AGTAGCAA", "Tested target": "GST-Rok-C97-191 (Bacillus subtilis subsp. subtilis str. …, UniProt O34857 97-191)", "binding signal [E-score]": 0.277}
{"Sequence content": "GAAAGTAC", "Tested target": "GST-Rok-C97-191 (Bacillus subtilis subsp. subtilis str. …, UniProt O34857 97-191)", "binding signal [E-score]": 0.35}
{"Sequence content": "CAAAAGAG", "Tested target": "GST-Rok-C97-191 (Bacillus subtilis subsp. subtilis str. …, UniProt O34857 97-191)", "binding signal [E-score]": -0.195}
{"Sequence content": "GAAAGTAA", "Tested target": "GST-Rok-C97-191 (Bacillus subtilis subsp. subtilis str. …, UniProt O34857 97-191)", "binding signal [E-score]": 0.226}
{"Sequence content": "AGTTGAAC", "Tested target": "GST-Rok-C97-191 (Bacillus subtilis subsp. subtilis str. …, UniProt O34857 97-191)", "binding signal [E-score]": -0.0218}
{"Sequence content": "ATTAGTAA", "Tested target": "GST-Rok-C97-191 (Bacillus subtilis subsp. subtilis str. …, UniProt O34857 97-191)", "binding signal [E-score]": 0.303}
{"Sequence content": "CATATGAA", "Tested target": "GST-Rok-C97-191 (Bacillus subtilis subsp. subtilis str. …, UniProt O34857 97-191)", "binding signal [E-score]": -0.0194}
{"Sequence content": "CACCGATA", "Tested target": "GST-Rok-C97-191 (Bacillus subtilis subsp. subtilis str. …, UniProt O34857 97-191)", "binding signal [E-score]": 0.152}
{"Sequence content": "CCGGACAA", "Tested target": "GST-Rok-C97-191 (Bacillus subtilis subsp. subtilis str. …, UniProt O34857 97-191)", "binding signal [E-score]": -0.145}
{"Sequence content": "AACCGATA", "Tested target": "GST-Rok-C97-191 (Bacillus subtilis subsp. subtilis str. …, UniProt O34857 97-191)", "binding signal [E-score]": 0.108}
{"Sequence content": "CAAAGTAC", "Tested target": "GST-Rok-C97-191 (Bacillus subtilis subsp. subtilis str. …, UniProt O34857 97-191)", "binding signal [E-score]": -0.0306}
{"Sequence content": "GCGTAGAC", "Tested target": "GST-Rok-C97-191 (Bacillus subtilis subsp. subtilis str. …, UniProt O34857 97-191)", "binding signal [E-score]": -0.111}
{"Sequence content": "AAATCCCA", "Tested target": "GST-Rok-C97-191 (Bacillus subtilis subsp. subtilis str. …, UniProt O34857 97-191)", "binding signal [E-score]": 0.123}
{"Sequence content": "ATTGCTGG", "Tested target": "GST-Rok-C97-191 (Bacillus subtilis subsp. subtilis str. …, UniProt O34857 97-191)", "binding signal [E-score]": 0.137}
{"Sequence content": "GCGGCAGA", "Tested target": "GST-Rok-C97-191 (Bacillus subtilis subsp. subtilis str. …, UniProt O34857 97-191)", "binding signal [E-score]": -0.0665}
